measured.target: T1, hCD137 (FXa digested) (human, UniProt Q07011 24-186)
T1 construct: Factor Xa digestion and Protein A removed the Fc; also called human CD137 extracellular domain
T1 sequence (Q07011 other isoform, or with tags, fused parts or gaps limits assumed): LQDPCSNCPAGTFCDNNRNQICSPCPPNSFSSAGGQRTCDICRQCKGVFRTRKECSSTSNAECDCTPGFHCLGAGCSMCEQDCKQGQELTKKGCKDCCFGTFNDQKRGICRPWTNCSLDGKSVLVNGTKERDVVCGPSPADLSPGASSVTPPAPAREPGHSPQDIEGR
protocol.text: SPR, 1 mM ATP
Method: Biacore T200 (GE Healthcare) was used to analyze the interaction of antigen-antibody reaction between the anti-CD137 antibodies and hCD137 (FXa digest). […] For the running buffer, 20 mM ACES, 150 mM NaCl, 2 mM MgCl₂, 0.05% Tween20 (pH 7.4) was used, and 10 mM Glycine-HCl (pH 1.5) was used as the regeneration solution. After capturing of the anti-CD137 antibodies suspended in TBS, 500 nM hCD137 (FXa digest) was injected into each flow cell at a flow rate of 10 μL/min for three minutes. […]
measured.property: binding amount (RU)
One number for each entry, in RU.

Worked examples follow.
>  <binder>
dBBAT037-P253 (antibody, human IgG1, lambda, V domains shown) VH: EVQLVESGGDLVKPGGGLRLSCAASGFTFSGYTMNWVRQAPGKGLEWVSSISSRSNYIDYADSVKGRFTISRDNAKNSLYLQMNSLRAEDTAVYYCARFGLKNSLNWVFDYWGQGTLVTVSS VL: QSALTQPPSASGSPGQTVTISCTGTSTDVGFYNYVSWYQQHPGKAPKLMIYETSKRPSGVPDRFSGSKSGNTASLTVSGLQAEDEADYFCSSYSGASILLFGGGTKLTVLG

>  <binding amount (RU)>
27.5

$$$$
>  <binder>
dBBAT122-P253 (antibody, human IgG1, lambda, V domains shown) VH: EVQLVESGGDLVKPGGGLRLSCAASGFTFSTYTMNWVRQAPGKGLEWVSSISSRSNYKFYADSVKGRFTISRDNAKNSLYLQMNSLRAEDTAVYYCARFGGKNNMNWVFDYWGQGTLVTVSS VL: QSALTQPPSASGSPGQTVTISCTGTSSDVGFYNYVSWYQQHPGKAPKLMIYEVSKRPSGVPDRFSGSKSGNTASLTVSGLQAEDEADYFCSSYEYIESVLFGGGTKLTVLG

>  <binding amount (RU)>
11.5

$$$$

Proceed to the following item.
Ask | Recorded binding amount for dBBAT021-P253 (antibody, human IgG1, lambda, V domains shown) VH: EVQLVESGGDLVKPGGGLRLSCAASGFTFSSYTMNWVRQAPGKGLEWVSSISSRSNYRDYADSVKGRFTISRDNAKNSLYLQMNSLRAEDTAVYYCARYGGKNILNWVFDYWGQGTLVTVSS VL: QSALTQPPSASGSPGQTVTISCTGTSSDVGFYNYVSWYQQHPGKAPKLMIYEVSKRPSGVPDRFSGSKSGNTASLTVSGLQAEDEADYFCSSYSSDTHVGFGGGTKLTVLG , please?
Reply | 9.2
